- Test system: Aβtotal
- assay_procedure: Screening for γ-secretase-modulating activity in SKNBE2 cells carrying APP 695 wild type: Aβtotal in cell supernatant (Alphalisa)
- Format: cell-based
- condition_details: Homo sapiens, overnight incubation
pIC50: −log10 of the molar value. Counter-ions that a name gives are not always drawn.
Documented pIC50 across a set of molecules

molecule	pIC50
COc1cc(N(C)c2nc3n(n2)CCCC3c2ccccc2C(F)(F)F)ccc1-n1cnc(C)c1 (centres unmarked) [Compound 33, HCl]	< 5.00
COc1cc(Nc2nc3n(n2)CCCC3c2cccc(F)c2)ccc1-c1ccnc(C)c1 (centres unmarked)	< 5.00
COc1cc(Nc2nc3n(n2)CCCC3c2cccc(C(F)(F)F)c2)ccc1-n1cnc(C)c1 (centres unmarked)	5.12
Cc1cc(-c2ccc(Nc3nc4c(-c5ccccc5Cl)cccn4n3)cc2)cc(C)n1	< 5.00
Cc1cc(-c2ccc(Nc3nc4n(n3)CCC[C@@H]4c3ccc(F)cc3C)cc2)ccn1	< 5.00
COc1cc(Nc2nc3n(n2)CCOC3c2ccccc2Cl)ccc1-c1ccnc(C)c1 (centres unmarked)	< 5.00
COc1ccc(F)c(C2CCCn3nc(Nc4ccc(-c5ccnc(C)c5)cc4)nc32)c1 (centres unmarked)	< 5.00
COc1cc(Nc2nc3c(-c4ccccc4C(F)(F)F)nccn3n2)ccc1-n1cnc(C)c1	5.12
FC(F)(F)c1ccccc1C1CCCn2nc(Nc3ccc(-c4cccnc4)cc3)nc21 (centres unmarked)	< 5.00
COc1cc(Nc2nc3c(-c4ccccc4Cl)cccn3n2)ccc1-n1cnc(C)c1	< 5.00
COc1cc(F)cc(C2CCCn3nc(Nc4ccc(-c5ccnc(C)c5)cc4)nc32)c1 (centres unmarked)	< 5.00

* * *

Documented melting point across a set of compounds
readout_label: melting point

compound	result
COc1cc(Nc2nc3c(-c4ccc(F)cc4C(F)(F)F)cccn3n2)ccc1-n1cnc(C)c1	238.4 °C
COc1ccc(F)c(C2CCCn3nc(Nc4ccc(-c5ccnc(C)c5)cc4)nc32)c1 (centres unmarked)	204.6 °C
COc1cc(Nc2nc3n(n2)CCCC3c2ccc(F)cc2)ccc1-c1ccnc(C)c1 (centres unmarked)	207.1 °C
COc1cc(Nc2nc3n(n2)CCCC3c2cc(C(F)(F)F)ccc2F)ccc1-c1ccnc(C)c1 (centres unmarked)	173.1 °C
COc1cc(Nc2nc3n(n2)CCNC3c2ccccc2C(F)(F)F)ccc1-n1cnc(C)c1 (centres unmarked)	248 °C
COc1cc(Nc2nc3n(n2)CCCC3c2ccccc2Cl)ccc1-c1ccnc(C)c1 (centres unmarked) [Compound 77]	167.9 °C
COc1nc(Nc2nc3c(-c4ccc(F)cc4C)nccn3n2)ccc1-c1ccnc(C)c1	268.2 °C
Cc1cc(-c2ccc(Nc3nc4n(n3)CCCC4c3cc(C(F)(F)F)ccc3F)cc2)ccn1 (centres unmarked)	194.4 °C

* * *

- Test system: Aβ42
- assay_procedure: Screening for γ-secretase-modulating activity in SKNBE2 cells carrying APP 695 wild type: Aβ42 in cell supernatant (Alphalisa)
- Format: cell-based
- condition_details: Homo sapiens, SKNBE2, SKNBE2 cells carrying APP 695 wild type, overnight incubation
pIC50: −log10 of the molar value.
readout_label: pIC50

molecule	result_number
COc1cc(Nc2nc3n(n2)CCC[C@H]3c2ccccc2Cl)ccc1-n1cnc(C)c1	7.60
COc1cc(Nc2nc3n(n2)CCCC3c2cc(C(F)(F)F)ccc2C)ccc1-c1ccnc(C)c1 (stereo not shown)	7.51
COc1cc(Nc2nc3c(-c4ccccc4Cl)cccn3n2)ccc1-c1ccnc(C)c1	8.15
Cc1cc(-c2ccc(Nc3nc4n(n3)CCCC4c3cc(C(F)(F)F)ccc3F)cc2)ccn1 (stereo not shown)	7.39
COc1cc(Nc2nc3n(n2)CCCC3c2ccc(C(F)(F)F)cc2)ccc1-c1ccnc(C)c1 (stereo not shown)	7.49
COc1cc(Nc2nc3n(n2)CCOC3c2ccc(F)cc2C)ccc1-c1ccnc(C)c1 (stereo not shown)	7.68
COc1cc(Nc2nc3n(n2)CCOC3c2ccc(F)cc2F)ccc1-c1ccnc(C)c1 (stereo not shown)	7.44
Cc1ncoc1-c1ccc(Nc2nc3c(-c4ccccc4C(F)(F)F)cccn3n2)cc1	6.90
COc1cc(Nc2nc3n(n2)CCCC3c2ccccc2F)ccc1-n1cnc(C)c1 (stereo not shown)	7.54
COc1cc(Nc2nc3n(n2)CCNC3c2ccccc2C(F)(F)F)ccc1-n1cnc(C)c1 (stereo not shown)	7.19
COc1ccc(F)c(C2CCCn3nc(Nc4ccc(-c5ccnc(C)c5)c(F)c4)nc32)c1 (stereo not shown)	7.64
COc1cc(NC(=O)c2nc3c(-c4ccccc4Cl)cccn3n2)ccc1-n1cnc(C)c1	7.64
Cc1cc(-c2ccc(Nc3nc4n(n3)CCCC4c3ccccc3C(F)(F)F)cc2)ccn1 (stereo not shown)	7.64
Cc1cc(-c2ccc(Nc3nc4n(n3)CCOC4c3ccccc3Cl)cc2)ccn1 (stereo not shown)	7.34
COc1cc(C2CCCn3nc(Nc4ccc(-c5ccnc(C)c5)c(OC)c4)nc32)ccc1F (stereo not shown)	7.49
FC(F)(F)c1ccccc1C1CCCn2nc(Nc3ccc(-c4ccncc4)cc3)nc21 (stereo not shown)	6.59
FC(F)(F)c1ccccc1C1CCCn2nc(Nc3ccc(-c4cccnc4)cc3)nc21 (stereo not shown)	5.28
Cc1cc(-c2ccc(Nc3nc4n(n3)CCCC4c3ccccc3Cl)cc2)ccn1 (stereo not shown)	7.55
COc1cc(Nc2nc3c(-c4cccc(C(F)(F)F)c4)nccn3n2)ccc1-n1cnc(C)c1	7.40
